Target: α1-adrenergic receptor
Assay: Test of the bond to the α1-adrenergic receptor (inhibition of [3H]prazosin bond to rat cerebral cortex)
Conditions: [3H]prazosin 0.2 nM, rat cerebral cortex membranes, 30 min, 25° C., pH 7.7
Experimental: The cerebral cortices of male Sprague Dawley rats are homogenized at 4° C. in Tris-HCl 50 mM pH=7.7 and centrifuged at 50,000 g for 30 minutes at 4° C. […] The filters are rinsed three times with the same buffer at 0-4° C. and their radioactivity is tested by liquid scintillation spectrometry. The specific bonds are obtained by subtracting the non-specific bonds (determined in the presence of 10 μM of phentolamine (Sigma Chemical Co. St. Louis Mo.)) from the total bonds. […]
For each of the compounds below, state its pKi.
Remember the convention: pKi equals -log10 of concentration in molar.

Form: compound = Cc1ccc(C)c(N2CCN(CCCNC(=O)C(C)(O)c3ccccc3)CC2)c1 (racemic) ; pKi = 7.60

Form: compound = `CCC(CC)(C(=O)NCCCN1CCN(c2cc(C)ccc2C)CC1)c1ccccc1` ; pKi = 7.13

Form: compound = Cc1ccc(C)c(N2CCN(CCCNC(=O)C(C)c3ccccc3)CC2)c1 (racemic) ; pKi = 7.52

Form: compound = Cc1ccc(C)c(N2CCN(CCCNC(=O)C(C)(O)c3cccc(-c4ccccc4)c3)CC2)c1 (racemic) ; pKi = 7.14

Form: compound = CCCCC(O)(C(=O)NCCCN1CCN(c2cc(C)ccc2C)CC1)c1ccccc1 (racemic) ; pKi = 7.44

Form: compound = CCC(O)c1ccccc1N1CCN(CCCNC(=O)C(c2ccccc2)c2ccccc2)CC1 (racemic) ; pKi = 6.77

Form: compound = Cc1ccc(C)c(N2CCN(CCCNC(=O)C(CO)c3ccccc3)CC2)c1 (racemic) ; pKi = 7.57

Form: compound = Cc1ccc(C)c(N2CCN(CCCNC(=O)C(C)(O)c3cccc(Cl)c3)CC2)c1 (racemic) ; pKi = 7.37

Form: compound = `Cc1ccc(C)c(N2CCN(CCCNC(=O)C(c3ccccc3)c3ccccc3)CC2)c1` ; pKi = 7.57

Form: compound = `Cc1ccc(C)c(N2CCN(CCCNC(=O)C(c3ccc(Cl)cc3)c3ccc(Cl)cc3)CC2)c1` ; pKi = 7.19

Form: compound = Cc1ccc(C)c(N2CCN(CCCNC(=O)C(C)(C(=O)NCc3ccccc3)c3ccccc3)CC2)c1 (racemic) ; pKi = 7.30

Form: compound = `COc1ccccc1N1CCN(CCCNC(=O)C(O)(c2ccccc2Cl)c2ccccc2Cl)CC1` ; pKi = 7.27

Form: compound = Cc1ccc(C)c(N2CCN(CCCNC(=O)C(C)(O)c3ccc4ccccc4c3)CC2)c1 (racemic) ; pKi = 7.54

Form: compound = Cc1ccc(S(=O)(=O)NC(C(=O)NCCCN2CCN(c3cc(C)ccc3C)CC2)c2ccccc2)cc1 (racemic) ; pKi = 7.54

Form: compound = `Cc1cccc(N2CCN(CCCNC(=O)C(O)(c3ccccc3)c3ccccc3)CC2)c1` ; pKi = 7.29

Form: compound = O=C(NCCCN1CCN(c2ccccc2C(O)C2CC2)CC1)C(c1ccccc1)c1ccccc1 (racemic) ; pKi = 6.52

Form: compound = `COc1ccccc1N1CCN(CCCNC(=O)C(O)(c2ccccc2)c2ccccc2)CC1` ; pKi = 7.57

Form: compound = COc1ccc(C(C)(O)C(=O)NCCCN2CCN(c3cc(C)ccc3C)CC2)cc1 (racemic) ; pKi = 7.42

Form: compound = CCCc1ccccc1N1CCN(CCCNC(=O)C(O)(c2ccccc2)c2ccccc2)CC1 (racemic) ; pKi = 7.60

Form: compound = COc1ccccc1N1CCN(CCCNC(=O)C(O)c2ccccc2)CC1 (racemic) ; pKi = 7.22

Form: compound = `Cc1ccc(C)c(N2CCN(CCCN(C)C(=O)C(c3ccccc3)c3ccccc3)CC2)c1` ; pKi = 7.05

Form: compound = `COc1ccccc1N1CCN(CCCNC(=O)C2c3ccccc3Oc3ccccc32)CC1` ; pKi = 7.57

Form: compound = COc1ccc(CC(C)(O)C(=O)NCCCN2CCN(c3cc(C)ccc3C)CC2)cc1 (racemic) ; pKi = 7.35

Form: compound = Cc1ccc(C(C)(O)C(=O)NCCCN2CCN(c3cc(C)ccc3C)CC2)cc1 (racemic) ; pKi = 7.57

Form: compound = `Cc1cccc(C)c1N1CCN(CCCNC(=O)C(O)(c2ccccc2)c2ccccc2)CC1` ; pKi = 6.32

Form: compound = `Cc1ccc(C)c(N2CCN(CCCNC(=O)C(O)(c3ccccc3)c3ccccc3)CC2)c1` ; pKi = 7.52

Form: compound = `Cc1ccc(C)c(N2CCN(CCCNC(=O)[C@](C)(O)c3ccccc3)CC2)c1` ; pKi = 7.32

Form: compound = `COc1ccccc1N1CCN(CCCNC(=O)C2(O)c3ccccc3-c3ccccc32)CC1` ; pKi = 7.39

Form: compound = `COc1ccc(C(O)(C(=O)NCCCN2CCN(c3cc(C)ccc3C)CC2)c2ccc(OC)cc2)cc1` ; pKi = 7.54

Form: compound = `N#Cc1ccccc1N1CCN(CCCNC(=O)C(O)(c2ccccc2)c2ccccc2)CC1` ; pKi = 7.57

Form: compound = `Cc1ccc(N2CCN(CCCNC(=O)C(O)(c3ccccc3)c3ccccc3)CC2)c(C)c1` ; pKi = 7.22

Form: compound = `CCOc1ccccc1N1CCN(CCCNC(=O)C(O)(c2ccccc2)c2ccccc2)CC1` ; pKi = 7.80

====

molecular target: α1-adrenergic receptor; experiment: Test of the bond to the α1-adrenergic receptor (inhibition of [3H]prazosin bond to rat cerebral cortex); details: [3H]prazosin 0.2 nM, rat cerebral cortex membranes, 30 min, 25° C., pH 7.7
MEASURED PARAMETER: Ki (µM)
Report as a plain number; the unit µM is understood.

Form: compound = `COc1ccccc1N1CCN(CCCNC(=O)C(c2ccccc2)c2ccccc2)CC1` ; Ki = 0.03

Form: compound = `Cc1cccc(N2CCN(CCCNC(=O)C(O)(c3ccccc3)c3ccccc3)CC2)c1C` ; Ki = 0.066

Form: compound = `COC(C(=O)NCCCN1CCN(c2cc(C)ccc2C)CC1)(c1ccccc1)c1ccccc1` ; Ki = 0.038

Form: compound = CCC(O)(C(=O)NCCCN1CCN(c2cc(C)ccc2C)CC1)c1ccccc1 (racemic) ; Ki = 0.031

Form: compound = Cc1ccc(C)c(N2CCN(CCCNC(=O)C(C)(O)c3cccc4ccccc34)CC2)c1 (racemic) ; Ki = 0.022

Form: compound = Cc1ccc(C)c(N2CCN(CCCNC(=O)C(C)(O)c3ccccc3Cl)CC2)c1 (racemic) ; Ki = 0.067

Form: compound = Cc1ccc(C)c(N2CCN(CCCNC(=O)C(C)(C)O)CC2)c1 (racemic) ; Ki = 0.28

Form: compound = `Cc1ccc(C)c(N2CCN(CCCNC(=O)C(C)(c3ccccc3)c3ccccc3)CC2)c1` ; Ki = 0.098

====

biological target: α1-adrenergic receptor; assay: Test of the bond to the α1-adrenergic receptor (inhibition of [3H]prazosin bond to rat cerebral cortex); conditions: [3H]prazosin 0.2 nM, rat cerebral cortex membranes, 30 min, 25° C., pH 7.7
For each of the compounds below, state its Ki.
Report as a plain number; the unit nM is understood.

Form: compound = CCSC(C(=O)NCCCN1CCN(c2cc(C)ccc2C)CC1)(c1ccccc1)c1ccccc1 [Compound 24] ; Ki = 69

Form: compound = Cc1ccc(C)c(N2CCN(CCCNC(=O)C(C(=O)NCc3ccccc3)c3ccccc3)CC2)c1 (racemic) [Compound 47] ; Ki = 14

Form: compound = Cc1ccc(C)c(N2CCN(CCCNC(=O)C(N)c3ccccc3)CC2)c1 (racemic) [Compound 32] ; Ki = 51

Form: compound = COc1ccccc1N1CCN(CCCNC(=O)C(c2ccccc2)C2CCCCC2)CC1 (racemic) [Compound 18] ; Ki = 55

====

molecular target: α1-adrenergic receptor; experiment: Test of the bond to the α1-adrenergic receptor (inhibition of [3H]prazosin bond to rat cerebral cortex); details: [3H]prazosin 0.2 nM, rat cerebral cortex membranes, 30 min, 25° C., pH 7.7
MEASURED PARAMETER: Ki (nM)
Report as a plain number; the unit nM is understood.

Form: compound = Cc1ccc(C)c(N2CCN(CCCNC(=O)C(C)(O)c3ccc(Cl)cc3)CC2)c1 (racemic) [Compound 30] ; Ki = 44

Form: compound = Cc1ccc(C)c(N2CCN(CCCNC(=O)C(NS(C)(=O)=O)c3ccccc3)CC2)c1 (racemic) [Compound 33] ; Ki = 40

Form: compound = Cc1ccc(C)c(N2CCN(CCCNC(=O)C(NC(=O)Cc3ccccc3)c3ccccc3)CC2)c1 (racemic) [Compound 49] ; Ki = 50

Form: compound = Cc1ccc(N2CCN(CCCNC(=O)C(O)(c3ccccc3)c3ccccc3)CC2)cc1 [Compound 3] ; Ki = 60

Form: compound = Cc1ccc(C)c(N2CCN(CCCNC(=O)C(C)(OCc3ccccc3)c3ccccc3)CC2)c1 (racemic) [Compound 52] ; Ki = 51
